The reported numbers originate from the supplement of paper PMC5998384.

Exercise: for every item that follows, state its recorded thermal stability score.
- Test system: HeLa Kyoto;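 note: synchronized HeLa Kyoto cells, proteins quantified by TMT10plex mass spectrometry, three biological replicates, mitosis taken 0.5 h after nocodazole release, G1/S directly after double thymidine block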
- protocol description: thermal stability score vs G1/S (z-score of summed log2 fold changes over temperatures); higher = more thermally stable than in G1/S
- cond: cell cycle stage: early G1 (4.5 h after nocodazole release)

Before answering, review these 2 worked examples.
MAEGERQPPPDSSEEAPPATQNFIIPKKEIHTVPDMGKWKRSQAYADYIGFILTLNEGVKGKKLTFEYRVSEMWNEVHEEKEQAAKQSVSCDECIPLPRAGHCAPSEAIEKLVALLNTLDRWIDETPPVDQPSRFGNKAYRTWYAKLDEEAENLVATVVPTHLAAAVPEVAVYLKESVGNSTRIDYGTGHEAAFAAFLCCLCKIGVLRVDDQIAIVFKVFNRYLEVMRKLQKTYRMEPAGSQGVWGLDDFQFLPFIWGSSQLIDHPYLEPRHFVDEKAVNENHKDYMFLECILFITEMKTGPFAEHSNQLWNISAVPSWSKVNQGLIRMYKAECLEKFPVIQHFKFGSLLPIHPVTSG [PPP2R4]
2.14
MEGQRWLPLEANPEVTNQFLKQLGLHPNWQFVDVYGMDPELLSMVPRPVCAVLLLFPITEKYEVFRTEEEEKIKSQGQDVTSSVYFMKQTISNACGTIGLIHAIANNKDKMHFESGSTLKKFLEESVSMSPEERARYLENYDAIRVTHETSAHEGQTEAPSIDEKVDLHFIALVHVDGHLYELDGRKPFPINHGETSDETLLEDAIEVCKKFMERDPDELRFNAIALSAA [UCHL3]
0.593

Query sequence follows.
Which thermal stability score is reported with HeLa Kyoto for this entry: MSRLRALLGLGLLVAGSRVPRIKSQTIACRSGPTWWGPQRLNSGGRWDSEVMASTVVKYLSQEEAQAVDQELFNEYQFSVDQLMELAGLSCATAIAKAYPPTSMSRSPPTVLVICGPGNNGGDGLVCARHLKLFGYEPTIYYPKRPNKPLFTALVTQCQKMDIPFLGEMPAEPMTIDELYELVVDAIFGFSFKGDVREPFHSILSVLKGLTVPIASIDIPSGWDVEKGNAGGIQPDLLISLTAPKKSATQFTGRYHYLGGRFVPPALEKKYQLNLPPYPDTECVYRLQ [APOA1BP] ?
-2.06
